target: human TLR2 (Homo sapiens); test: TLR2-specific NF-κB induction reporter gene assay
Sequence (O60603 21-784): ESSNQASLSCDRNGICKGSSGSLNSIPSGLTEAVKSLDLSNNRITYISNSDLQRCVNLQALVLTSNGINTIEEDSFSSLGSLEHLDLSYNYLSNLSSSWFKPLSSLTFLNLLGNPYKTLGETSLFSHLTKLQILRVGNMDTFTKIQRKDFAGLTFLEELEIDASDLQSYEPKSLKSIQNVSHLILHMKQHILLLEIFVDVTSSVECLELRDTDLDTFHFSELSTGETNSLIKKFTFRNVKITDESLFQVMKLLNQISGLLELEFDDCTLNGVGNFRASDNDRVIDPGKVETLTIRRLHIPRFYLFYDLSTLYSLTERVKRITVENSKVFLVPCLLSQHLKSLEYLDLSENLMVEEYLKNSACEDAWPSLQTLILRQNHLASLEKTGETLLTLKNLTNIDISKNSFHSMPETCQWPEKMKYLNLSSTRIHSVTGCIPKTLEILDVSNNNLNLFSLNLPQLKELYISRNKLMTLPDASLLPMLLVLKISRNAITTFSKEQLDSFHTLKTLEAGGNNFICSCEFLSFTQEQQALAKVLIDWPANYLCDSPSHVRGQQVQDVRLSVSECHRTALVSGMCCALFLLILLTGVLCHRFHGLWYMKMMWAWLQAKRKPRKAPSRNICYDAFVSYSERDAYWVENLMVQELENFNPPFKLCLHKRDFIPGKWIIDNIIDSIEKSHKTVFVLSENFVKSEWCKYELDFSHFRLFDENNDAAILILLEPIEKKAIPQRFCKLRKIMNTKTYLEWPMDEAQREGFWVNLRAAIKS
Sequence (Q9Y2C9 32-796 partner): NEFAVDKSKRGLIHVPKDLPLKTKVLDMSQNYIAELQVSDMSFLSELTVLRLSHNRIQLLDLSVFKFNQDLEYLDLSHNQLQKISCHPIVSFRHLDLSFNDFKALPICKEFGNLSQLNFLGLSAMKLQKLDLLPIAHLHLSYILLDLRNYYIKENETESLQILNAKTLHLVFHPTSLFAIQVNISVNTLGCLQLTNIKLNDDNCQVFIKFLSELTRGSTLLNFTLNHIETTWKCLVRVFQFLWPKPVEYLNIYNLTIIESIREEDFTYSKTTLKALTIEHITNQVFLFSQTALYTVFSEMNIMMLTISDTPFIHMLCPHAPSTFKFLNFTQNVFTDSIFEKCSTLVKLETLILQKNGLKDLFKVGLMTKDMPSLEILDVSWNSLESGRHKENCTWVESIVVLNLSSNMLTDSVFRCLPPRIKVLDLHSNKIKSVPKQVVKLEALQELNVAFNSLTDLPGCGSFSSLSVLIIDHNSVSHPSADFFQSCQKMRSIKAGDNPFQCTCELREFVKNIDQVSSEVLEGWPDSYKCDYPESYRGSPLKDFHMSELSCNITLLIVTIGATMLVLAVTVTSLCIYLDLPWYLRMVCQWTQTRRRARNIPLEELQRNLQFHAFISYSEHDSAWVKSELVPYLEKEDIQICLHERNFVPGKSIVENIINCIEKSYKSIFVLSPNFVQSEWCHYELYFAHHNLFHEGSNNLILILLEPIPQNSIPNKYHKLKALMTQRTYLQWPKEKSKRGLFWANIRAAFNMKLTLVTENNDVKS
experimental_readout: EC50 (nM)
Unit nM implied. Number only.

What the record says about CCCCCCCCCCCCCCCC(=O)OCCSC[C@H](N)C(=O)N[C@@H](CO)C(=O)OC : EC50 is 5.45

* * *

target: human TLR2 (Homo sapiens); assay: TLR2-specific NF-κB induction reporter gene assay; assay type: cell-based; settings: TLR2-specific reporter gene assay
experimental_readout: TLR2-agonistic activity (in words)

What the record says about CCCCC/C=C\C/C=C\CCCCCCCC(=O)OC[C@H](CSC[C@H](N)C(=O)NCC(=O)OC(C)C)OC(=O)CCCCCCC/C=C\C/C=C\CCCCC : TLR2-agonistic activity (in words) is highly active

What the record says about CC/C=C\C/C=C\C/C=C\CCCCCCCC(=O)OC[C@H](CSC[C@H](N)C(=O)NCC(=O)OC(C)C)OC(=O)CCCCCCC/C=C\C/C=C\C/C=C\CC : TLR2-agonistic activity (in words) is highly active

* * *

biological target: human TLR2 (Homo sapiens); test: TLR2-specific NF-κB induction reporter gene assay; type: cell-based; details: TLR2-specific reporter gene assay
experimental_readout: TLR2-agonistic activity (in words)

What the record says about CCCCCCCCCCCCCCCC(=O)OC[C@H](CSCC[C@H](N)C(=O)N[C@@H](CO)C(=O)O)OC(=O)CCCCCCCCCCCCCCC [Compound 69] : TLR2-agonistic activity (in words) is inactive

What the record says about CCCCCCCCCCCCCCCC(=O)OC[C@H](CSC(C)(C)[C@H](N)C(=O)N[C@@H](CO)C(=O)O)OC(=O)CCCCCCCCCCCCCCC [Compound 64] : TLR2-agonistic activity (in words) is inactive

What the record says about CCCCCCCCCCCCCCCC(=O)OC[C@H](CSCCC(=O)N[C@@H](CO)C(=O)OC)OC(=O)CCCCCCCCCCCCCCC [Compound 74] : TLR2-agonistic activity (in words) is inactive

* * *

test: Water solubility; format: physicochemical
experimental_readout: Water solubility

What the record says about CC/C=C\C/C=C\C/C=C\CCCCCCCC(=O)OC[C@H](CSC[C@H](N)C(=O)NCC(=O)OC(C)C)OC(=O)CCCCCCC/C=C\C/C=C\C/C=C\CC : Water solubility is not water-soluble

What the record says about CCCCCCCCCCCCCCCC(=O)OC[C@H](CSC[C@H](N)C(=O)NCC(=O)OC(C)C)OC(=O)CCCCCCCCCCCCCCC : Water solubility is not water-soluble

What the record says about CCCCC/C=C\C/C=C\CCCCCCCC(=O)OC[C@H](CSC[C@H](N)C(=O)NCC(=O)OC(C)C)OC(=O)CCCCCCC/C=C\C/C=C\CCCCC : Water solubility is not water-soluble
